- MEASURED_ON: T1, human chemokine (C-C motif) receptor 8 (CCR8) (human, UniProt P51685 1-355)
- T1 construct: On human peripheral blood lymphocytes / PBMC (native) or on human CCR8 GFP-transfected Ba/F3 cells; also called hCCR8; human CCR8
- EXPERIMENTAL_PROTOCOL: flow cytometry blocking, PBMC CCR8+ CD4+ cells; competitor PE-AB10 (its MFI is read)
MEASURED_METRIC: MFI

>>> observed_value("AB4 (antibody, V domains shown, Hybridoma monoclonal; also called antibody 4; clone 4) VH: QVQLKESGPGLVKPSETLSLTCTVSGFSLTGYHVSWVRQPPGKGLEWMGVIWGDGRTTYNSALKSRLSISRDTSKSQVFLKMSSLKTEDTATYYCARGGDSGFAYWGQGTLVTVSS VL: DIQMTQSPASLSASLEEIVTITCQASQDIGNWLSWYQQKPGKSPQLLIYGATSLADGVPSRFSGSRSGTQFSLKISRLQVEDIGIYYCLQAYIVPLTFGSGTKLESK")
1130
